Every entry's value here was drawn from patent US20200181261A1.

# Experimental Target: T1, Human CEACAM6-Domain 1-His (expressed in E. coli), wild-type (human)
# T1 construct: entry includes the His tag; also called hDOM1
# T1 chain: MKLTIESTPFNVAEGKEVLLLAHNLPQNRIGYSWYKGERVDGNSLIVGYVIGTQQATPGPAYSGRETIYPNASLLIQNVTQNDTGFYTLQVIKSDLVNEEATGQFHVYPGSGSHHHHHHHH
# Protocol Details: SPR, antibody captured, antigen as analyte
Quantity Name: Kd (nM)
# unit: nM | format: bare number

Binder	Kd / nM
TPP-3705 (antibody, human IgG2, kappa, V domains shown, also called 090E-M007-A09-Mat1-hIgG2-hIgG2Kappa) VH: EVQLVESGGGLVQPGGSLRLSCAASGFTFSLYQMHWVRQAPGKGLEWVSWISFSGGNTGYADSVKGRFTISRDNSKNTLYLQMNSLRAEDTAVYYCARATGYSSPWYLDPWGQGTLVTVSS VL: DIQMTQSPSSLSASVGDRVTITCQASHEIDNYLNWYQQKPGKAPKLLIYDAYWLKTGVPSRFSGSGSGTDFTLTISSLQPEDIATYYCQGYDDLSVTFGGGTKVDIKR	6.7

Then there is this binder:
Q: Consider the binder TPP-3707 (antibody, human IgG2, kappa, V domains shown, also called 090E-M007-A09-Mat2-hIgG2-hIgG2Kappa) VH: EVQLVESGGGLVQPGGSLRLSCAASGFTFSLYQMHWVRQAPGKGLEWVSWISFSGGNTGYADSVKGRFTISRDNSKNTLYLQMNSLRAEDTAVYYCARATGYSSPWYLDPWGQGTLVTVSS VL: DIQMTQSPSSLSASVGDRVTITCQASHEIDNYLNWYQQKPGKAPKLLIYDAYWSKTGVPSRFSGSGSGTDFTLTISSLQPEDIATYYCQGYDDLSVTFGGGTKVDIKR and give its measured Kd.
A: 6.4
